assay: In vitro enzyme assay to detect hydrolysis of chlorophenol red-beta-D-[…] directly proportional to the number of Toxoplasma stably expressing beta-galactosidase; type: functional, organism-based, Toxoplasma gondii; parameters: scale not given: in the data most compounds retested in dose-response had high values; settings: 10 µM
About 440 (0.52%) of roughly 85,000 compounds showed an effect of 50% or more. The full list was thinned out, with strong results kept by preference.
# cutoff 10% applies to Percent Effect; >= gives label 1, < gives label 0

{"compound": "C[C@@H]1CN(C2CCN(c3ccccc3F)CC2)CC[C@]1(C)O", "label.class": "label 1"}

Task: Determine whether measured Percent Effect meets or exceeds 10% for `CCn1cc(CN(C)S(=O)(=O)c2ccc(C)c(C)c2)cn1`
Result: label 0

Task: Determine whether measured Percent Effect meets or exceeds 10% for CC(NC(=O)NCCCN1CCCCCC1=O)c1nncn1C (centres undefined)
Result: label 1

Task: Determine whether measured Percent Effect meets or exceeds 10% for `CCn1cc(CN(C)S(=O)(=O)c2ccc(Cl)cc2)cn1`
Result: label 0

Task: Determine whether measured Percent Effect meets or exceeds 10% for `CC(C)CC(=O)N1CC[C@H]2N(C)CC[C@@]2(C(=O)Nc2ccccc2)CC1.O=C(O)C(F)(F)F`
Result: label 1

Task: Determine whether measured Percent Effect meets or exceeds 10% for `CC(C)CC(=O)N1CC[C@H]2N(C)CC[C@@]2(C(=O)Nc2cccnc2)CC1.O=C(O)C(F)(F)F.O=C(O)C(F)(F)F`
Result: label 0

Task: Determine whether measured Percent Effect meets or exceeds 10% for OC(CNC1CCOCC1)c1cccc(OCc2ccccc2)c1 (centres undefined)
Result: label 0

Taken from ChEMBL document CHEMBL3988442.
